# TARGET_SYSTEM: 15-LO obtained from reticulocyte of rabbit (Oryctolagus cuniculus)
# Construct: 15-LO obtained from reticulocyte of rabbit
# Sequence (P12530 whole entry): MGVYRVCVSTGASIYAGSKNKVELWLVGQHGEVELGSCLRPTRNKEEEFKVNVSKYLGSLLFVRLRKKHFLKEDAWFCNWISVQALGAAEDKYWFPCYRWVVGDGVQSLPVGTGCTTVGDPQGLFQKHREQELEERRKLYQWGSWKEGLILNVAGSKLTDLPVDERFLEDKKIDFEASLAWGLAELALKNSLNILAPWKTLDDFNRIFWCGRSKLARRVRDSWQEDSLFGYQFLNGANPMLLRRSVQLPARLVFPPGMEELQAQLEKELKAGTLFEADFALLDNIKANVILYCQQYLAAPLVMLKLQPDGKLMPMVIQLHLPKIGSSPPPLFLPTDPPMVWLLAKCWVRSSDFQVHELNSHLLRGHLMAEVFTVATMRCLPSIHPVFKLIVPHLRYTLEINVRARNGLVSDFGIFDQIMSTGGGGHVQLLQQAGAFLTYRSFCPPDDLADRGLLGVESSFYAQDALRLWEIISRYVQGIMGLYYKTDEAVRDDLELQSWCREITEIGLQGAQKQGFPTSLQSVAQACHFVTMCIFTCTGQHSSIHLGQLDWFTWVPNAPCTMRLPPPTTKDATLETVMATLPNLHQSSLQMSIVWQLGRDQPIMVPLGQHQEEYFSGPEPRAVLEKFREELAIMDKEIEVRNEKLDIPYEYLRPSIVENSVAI
# TEST_NAME: 15-lipoxygenase (15-LO) inhibitory activity, 15-HETE production
# CONDITION: 15-LO from reticulocyte of rabbit, linoleic acid
Would you mind telling me the reported pIC50 of each entry?
The scale used: pIC50 is minus the common logarithm of the concentration in molar units.

Query :: Could you share what pIC50 was measured for Cc1c(C)c2c(c(C)c1N)CC(C)(CN1CCC(c3ccccc3)CC1)O2 (centres unmarked) [Compound R-3, reference compound] , tested on 15-LO obtained from reticulocyte of rabbit (Oryctolagus cuniculus)?
Result :: 5.49

Query :: # returns recorded pIC50 (system: 15-LO obtained from reticulocyte of rabbit (Oryctolagus cuniculus)) for Cc1c(C)c2c(c(C)c1N)CC(C)(CN1CCN(c3ccc(-c4ccn[nH]4)cc3)CC1)O2 (centres unmarked)
Result :: 5.25

Query :: Tell me reported pIC50 for Cc1c(C)c2c(c(C)c1N)CC(C)(CNc1ccc(-c3ccn[nH]3)cc1)O2 (racemic) , tested with 15-LO obtained from reticulocyte of rabbit (Oryctolagus cuniculus).
Result :: 5.85

Query :: # returns recorded pIC50 (system: 15-LO obtained from reticulocyte of rabbit (Oryctolagus cuniculus)) for Cc1c(C)c2c(c(C)c1N)CC(C)(CN1CCN(c3cccc(-n4ccnc4)c3)CC1)O2 (centres unmarked)
Result :: 5.81

Query :: API: value(readout= pIC50, system= 15-LO obtained from reticulocyte of rabbit (Oryctolagus cuniculus), query= CC1=NN(c2ccccc2)C(=O)C1 )
Result :: 5.25

----------
Kindly supply the reported pIC50 values for the records listed here.
# TARGET_SYSTEM: 5-lipoxygenase (5-LO) (Homo sapiens, UniProt P09917)
# Construct: human peripheral blood mononuclear cells and each of test compounds dissolved in DMSO (final concentration: 1%) were preincubated; endogenous in cells
# Sequence (P09917 whole entry): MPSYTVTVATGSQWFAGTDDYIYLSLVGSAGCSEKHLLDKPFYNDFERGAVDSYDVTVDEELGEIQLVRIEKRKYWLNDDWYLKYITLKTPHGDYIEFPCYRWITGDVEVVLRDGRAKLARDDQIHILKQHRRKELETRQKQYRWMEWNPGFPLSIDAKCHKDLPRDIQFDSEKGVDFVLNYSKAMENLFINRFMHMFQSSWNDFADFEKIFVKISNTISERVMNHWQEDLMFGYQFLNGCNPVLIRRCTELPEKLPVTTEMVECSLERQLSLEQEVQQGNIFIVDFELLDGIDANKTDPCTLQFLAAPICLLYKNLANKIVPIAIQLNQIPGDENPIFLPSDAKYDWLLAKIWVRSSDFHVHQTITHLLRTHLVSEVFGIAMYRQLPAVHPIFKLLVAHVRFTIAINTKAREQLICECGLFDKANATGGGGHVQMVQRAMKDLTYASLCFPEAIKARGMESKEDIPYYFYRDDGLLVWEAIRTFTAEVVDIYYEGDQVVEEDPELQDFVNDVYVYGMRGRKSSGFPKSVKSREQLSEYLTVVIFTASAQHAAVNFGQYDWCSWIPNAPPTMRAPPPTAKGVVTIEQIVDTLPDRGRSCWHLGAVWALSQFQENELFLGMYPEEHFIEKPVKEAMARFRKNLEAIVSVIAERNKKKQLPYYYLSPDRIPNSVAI
# TEST_NAME: 5-lipoxygenase (5-LO) inhibitory activity, leukotriene B4 production in human peripheral blood mononuclear cells
# CONDITION: human peripheral blood mononuclear cells, A23187, leukotriene B4 production
The read-out pIC50 is expressed as -log10 of concentration in moles per litre.

Query :: Please report the recorded pIC50 for Cc1c(C)c2c(c(C)c1N)CC(C)(CN1CCN(c3cccc(-n4ccnc4)c3)CC1)O2 (centres unmarked) [Compound B-1-18] .
Result :: 5.59

Query :: Field request: pIC50 | item: Cc1c(C)c2c(c(C)c1N)CC(C)(CN1CCN(c3ccc(-c4ccn[nH]4)cc3)CC1)O2 (centres unmarked) [Compound B-1-34]
Result :: 6.79

Query :: Returns the measured pIC50 for the input compound. Input: Cc1c(C)c2c(c(C)c1N)CC(C)(CNc1ccc(-c3ccn[nH]3)cc1)O2 (racemic) [Compound B-2-5-1]
Result :: 6.80

----------
Would you mind telling me the reported Ex vivo lipid peroxidation inhibition inhibition ratio (%) Brain of each entry?
# Tested on: lipid peroxidation activity of each tissue homogenate (brain, heart and kidney)
# TEST_NAME: Tissue migration properties: ex vivo lipid peroxidation inhibition in brain, heart and kidney homogenates
# CONDITION: brain homogenate; SD male rats; 100 mg/kg intraperitoneally; 30 minutes after administration
Express your answer in %, writing the number without its unit.

Query :: Field: Ex vivo lipid peroxidation inhibition inhibition ratio (%) Brain (lipid peroxidation activity of each tissue homogenate (brain, heart and kidney)). Entry: Cc1c(C)c2c(c(C)c1O)CC(C)(C(=O)Nc1ccc(-n3ccnc3)cc1)O2 (stereo not drawn) [Compound R-1, reference compound]
Result :: 68

Query :: Entry Cc1c(C)c2c(c(C)c1N)CC(C)(CN1CCN(c3ccc(-n4ccnc4)cc3)CC1)O2 (racemic) [Compound B-1-2] , system lipid peroxidation activity of each tissue homogenate (brain, heart and kidney): what Ex vivo lipid peroxidation inhibition inhibition ratio (%) Brain was measured?
Result :: 79

Query :: Query for lipid peroxidation activity of each tissue homogenate (brain, heart and kidney): what Ex vivo lipid peroxidation inhibition inhibition ratio (%) Brain does the record show for Cc1c(C)c2c(c(C)c1N)CC(C)(C(=O)N1CCN(c3ccc(-n4ccnc4)cc3)CC1)O2 (racemic) [Compound B-1-1] ?
Result :: 96

Query :: Checklist item: Ex vivo lipid peroxidation inhibition inhibition ratio (%) Brain tested on lipid peroxidation activity of each tissue homogenate (brain, heart and kidney), entry Cc1c(C)c2c(c(C)c1N)CC(C)(CN1CCN(c3cccc(-n4ccnc4)c3)CC1)O2 (stereo not drawn) [Compound B-1-18] , value?
Result :: 77

Query :: Lab note: need Ex vivo lipid peroxidation inhibition inhibition ratio (%) Brain for Cc1c(C)c2c(c(C)c1N)CC(C)(CNc1ccc(-c3ccn[nH]3)cc1)O2 (racemic) [Compound B-2-5-1] on lipid peroxidation activity of each tissue homogenate (brain, heart and kidney), anyone have it?
Result :: 96

Query :: Test system lipid peroxidation activity of each tissue homogenate (brain, heart and kidney); read-out Ex vivo lipid peroxidation inhibition inhibition ratio (%) Brain; what value for Cc1c(C)c2c(c(C)c1O)CCC(C)(C(=O)Nc1ccc(-n3ccnc3)cc1)O2 (stereo not drawn) [Compound R-2, reference compound] ?
Result :: 45
